Recorded % Inh of Gli1 reporter, CM N = 1 for the following binders
# targetOrTestSystem: Shh-N in conditioned medium (human, UniProt Q15465 24-197, N-terminal palmitoyl modification; lacks the C-terminal cholesterol moiety)
# measurementNotes: cell-based or functional assay
Don't forget the unit after the number, please.

Known % Inh of Gli1 reporter, CM N = 1 results, listed for orientation:
{"columns": ["binder", "% Inh of Gli1 reporter, CM N = 1"],
 "data": [
  ["6D7 (antibody, V domains shown, fully human XenoMouse hybridoma antibody; also called MAb 6D7) VH: QVQLQESGPGLVKPSQTLSLTCTVSGGSINSGGFYWSWIRQHPGKNLEWIGSIYYSGNTYYNPSLKSRVTISVDTSKNQFSLKLTSVTAADTAVYYCARGNDSGDYDWYFDLWGRGTLVTVSS VL: SYELTQPPSVSVSPGQTASITCSGEKLGYKYVCWYQQKPGQSPVLVIFHDNKRPSGIPERFSGSNSGNTATLTISGAQAMDEADYYCQAGDSSAVFGGGTKLTVL", "-8%"],
  ["1A12 (antibody, V domains shown, fully human XenoMouse hybridoma antibody; tested as hybridoma supernatant and as purified antibody; also called MAb 1A12) VH: QVYLVESGGGVVQPGRSLRLSCAASGFTFSSYGMHWVRQAPGKGLEWVAVIWYDGSNEYYADSVKGRFTISRDNSKNTLYLQMNSLRAEDTAVYYCARDLYYYGSGSPFDYWGQGTLVTVSS VL: EIVMTQSPATLSVSPGERATLSCRASQSVSSNLAWYQQKPGQAPRLLIFGVSIRATGIPARFSGSGSGTEFTLTISSLQSEDFAVYYCQQYNDWPRPGFGGGTKVEIK", "25%"],
  ["1C8 (antibody, V domains shown, fully human XenoMouse hybridoma antibody; tested as hybridoma supernatant and as purified antibody; also called MAb 1C8) VH: EVQLVESGGGLIQPGGSLRLSCAVSGFTVSSNCMNWVRQAPGKGLEWVSVIYSGGKTAYADSVKGRFTISRDNSKNTLCLQMNSLRAEDTAVYYCARDSSMVVGLGYFDLWGRGTLVTVSS VL: SYELTQPPSVSVSPGLTASITCSGDKLGYKYASWYQQKPGQSPVLVIYQDIKRPSGIPERFSGSNSGNTATLTISGTQAMDEADYYCQAWDSSTVVFGGGTKLTVL", "47%"]
]}

Which % Inh of Gli1 reporter, CM N = 1 is listed for 1H12 (antibody, V domains shown, fully human XenoMouse hybridoma antibody; tested as hybridoma supernatant and as purified antibody; also called MAb 1H12) VH: QVQLVQSGAEVKKPGASVKVSCKASGYTFTGYYMHWVRQAPGQGLEWVGWFNPNSGGTNCAQKFQGRVTMTRDTSISTAYMELSRLRSDDTAVYYCAREAVESYYYGLDVWGQGTTVTVSS VL: QSVVTQPPSASGTPGQRITISCSGSSSNIGSNYVYWYHQLPGSAPNLLIYRNNQRPSGVPDRFSGSKSGTSASLAISGLRSEDEADYFCAVWDDSLRGVVFGGGTKLTVL ? 38%
